- experimental-system: T1, Biotin Y46,48,51(SO3) PSGL-1(42-62) peptide (human, sulfotyrosine at Y46, Y48 and Y51; C-terminal Lys-biotin)
- T1 construct: also called fully sulfated N-terminal PSGL-1 peptide
- T1 peptide: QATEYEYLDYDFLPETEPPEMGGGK
- measurement-description: ELISA, immobilized biotin peptide
- Method: A typical ELISA was performed by coating high binding half-well plates (Corning Cat. #3690) with 3 ug/mL/25 ul per well of biotinylated N-terminal PSGL-1 peptides, which incorporated residues 42 to 62 of the protein, in PBS, pH 7.4, overnight at 4° C. The peptide was unmodified or contained sulfated tyrosine at all 3 tyrosine positions (46, 48, and 51) or at one position (tyr51) (Table 7). PSGL-1 protein or peptide served as a positive control. […]
A450nm, 20 nM mAb values for the binders below.
Numeric only. Scale: A450nm

binder: 10B03 (antibody, IgG4, V domains shown) VH: EVKLLESGGDLVQPGGSLRLSCAASGLTFSNYAMSWVRQAPGKGLEWVSAISGSGDNTYYADSVKGRFTISRDNSKNTLYLQMNSLRADDTAVYFCAKRDSWGQGTLVTVSS VL: QAVLTQPPSASGTPGQRVTISCSGSTSNIGSRDVYWYQHLPGTAPKLVIYRNDQRPSGVPDRFSGSKSGTSASLAISGLRSEDDADYYCAVWDNSLRGRVFGGGTKLTVL
observed-result: 2.68

Prompt: Value lookup for A450nm, 20 nM mAb; key = 06C04 (antibody, IgG4, V domains shown) VH: EVQLVESGGGLVQPGGSLRLSCAASGFTFSDHYMDWVRQAPGKGLEWVGRSRNKVKSYTTAYAASVEGRITISRDDSKNSLYLEMNSLKTEDTAVYYCVRVRWGGAFDIWGQGTMVTVSS VL: QPVLTQPPSASGSPGQSVTISCTGTSSDVGGYNYVSWYQQHPGKAPKLMIYEVSKRPSGVPDRFSGSKSGNTASLTVSGLQAEDEADYYCSSYAGSNNLRVFGGGTKLTVL
Response: 2.64
